Each recorded value in this set is attributed to patent US12692294B2.

target: T1, ErbB4 (Rattus norvegicus, UniProt Q62956); experiment: In vitro phosphorylation of Akt in neonatal rat cardiomyocytes; type: cell-based; conditions: Akt (Serine 473) phosphorylation, neonatal rat cardiomyocytes, 15 minutes treatment; read-out: Cardiomyocyte (CM) (ErbB4) Avg EC50
T1 construct: forming the ErbB2/ErbB4 complex in cardiomyocytes and the ErbB2/ErbB3 complex in Schwann cells; endogenous in cells; host or cells: primary neonatal rat cardiomyocytes (Sprague Dawley pups, 0 to 4 days old)
T1 sequence (Q62956 26-1308): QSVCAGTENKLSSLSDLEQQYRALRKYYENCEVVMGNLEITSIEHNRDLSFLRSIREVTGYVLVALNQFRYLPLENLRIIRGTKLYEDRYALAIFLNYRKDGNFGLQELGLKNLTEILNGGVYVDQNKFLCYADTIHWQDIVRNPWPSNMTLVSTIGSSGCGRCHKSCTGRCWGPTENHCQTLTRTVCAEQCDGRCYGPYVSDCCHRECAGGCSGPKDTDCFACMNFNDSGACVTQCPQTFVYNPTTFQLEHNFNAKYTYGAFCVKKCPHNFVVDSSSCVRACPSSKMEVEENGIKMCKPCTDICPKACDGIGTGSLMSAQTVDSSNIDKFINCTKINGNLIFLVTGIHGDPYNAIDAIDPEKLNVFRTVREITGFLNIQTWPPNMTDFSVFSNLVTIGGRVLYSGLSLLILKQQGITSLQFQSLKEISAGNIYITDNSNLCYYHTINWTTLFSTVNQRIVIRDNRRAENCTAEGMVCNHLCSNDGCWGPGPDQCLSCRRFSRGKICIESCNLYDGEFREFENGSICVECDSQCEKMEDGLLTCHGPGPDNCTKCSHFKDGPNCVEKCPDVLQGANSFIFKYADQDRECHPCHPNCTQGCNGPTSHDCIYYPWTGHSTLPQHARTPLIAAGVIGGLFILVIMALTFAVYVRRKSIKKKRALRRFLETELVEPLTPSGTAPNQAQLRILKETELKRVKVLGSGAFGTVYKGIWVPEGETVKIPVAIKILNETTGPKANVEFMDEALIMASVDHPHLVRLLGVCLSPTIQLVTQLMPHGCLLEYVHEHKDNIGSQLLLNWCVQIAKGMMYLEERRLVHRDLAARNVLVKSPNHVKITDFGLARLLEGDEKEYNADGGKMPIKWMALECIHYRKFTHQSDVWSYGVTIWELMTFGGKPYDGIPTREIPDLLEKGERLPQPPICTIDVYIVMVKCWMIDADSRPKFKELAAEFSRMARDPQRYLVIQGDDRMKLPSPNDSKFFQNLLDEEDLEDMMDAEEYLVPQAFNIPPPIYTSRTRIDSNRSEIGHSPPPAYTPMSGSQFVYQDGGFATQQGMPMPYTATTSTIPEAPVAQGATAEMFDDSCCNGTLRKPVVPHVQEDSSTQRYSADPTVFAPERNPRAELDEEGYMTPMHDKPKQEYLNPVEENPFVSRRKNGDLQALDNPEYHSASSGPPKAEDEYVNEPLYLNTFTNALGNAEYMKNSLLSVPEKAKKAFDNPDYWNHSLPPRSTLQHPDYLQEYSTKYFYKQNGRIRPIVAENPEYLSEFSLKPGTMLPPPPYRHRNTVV
T1 sequence (P06494 23-1257 partner): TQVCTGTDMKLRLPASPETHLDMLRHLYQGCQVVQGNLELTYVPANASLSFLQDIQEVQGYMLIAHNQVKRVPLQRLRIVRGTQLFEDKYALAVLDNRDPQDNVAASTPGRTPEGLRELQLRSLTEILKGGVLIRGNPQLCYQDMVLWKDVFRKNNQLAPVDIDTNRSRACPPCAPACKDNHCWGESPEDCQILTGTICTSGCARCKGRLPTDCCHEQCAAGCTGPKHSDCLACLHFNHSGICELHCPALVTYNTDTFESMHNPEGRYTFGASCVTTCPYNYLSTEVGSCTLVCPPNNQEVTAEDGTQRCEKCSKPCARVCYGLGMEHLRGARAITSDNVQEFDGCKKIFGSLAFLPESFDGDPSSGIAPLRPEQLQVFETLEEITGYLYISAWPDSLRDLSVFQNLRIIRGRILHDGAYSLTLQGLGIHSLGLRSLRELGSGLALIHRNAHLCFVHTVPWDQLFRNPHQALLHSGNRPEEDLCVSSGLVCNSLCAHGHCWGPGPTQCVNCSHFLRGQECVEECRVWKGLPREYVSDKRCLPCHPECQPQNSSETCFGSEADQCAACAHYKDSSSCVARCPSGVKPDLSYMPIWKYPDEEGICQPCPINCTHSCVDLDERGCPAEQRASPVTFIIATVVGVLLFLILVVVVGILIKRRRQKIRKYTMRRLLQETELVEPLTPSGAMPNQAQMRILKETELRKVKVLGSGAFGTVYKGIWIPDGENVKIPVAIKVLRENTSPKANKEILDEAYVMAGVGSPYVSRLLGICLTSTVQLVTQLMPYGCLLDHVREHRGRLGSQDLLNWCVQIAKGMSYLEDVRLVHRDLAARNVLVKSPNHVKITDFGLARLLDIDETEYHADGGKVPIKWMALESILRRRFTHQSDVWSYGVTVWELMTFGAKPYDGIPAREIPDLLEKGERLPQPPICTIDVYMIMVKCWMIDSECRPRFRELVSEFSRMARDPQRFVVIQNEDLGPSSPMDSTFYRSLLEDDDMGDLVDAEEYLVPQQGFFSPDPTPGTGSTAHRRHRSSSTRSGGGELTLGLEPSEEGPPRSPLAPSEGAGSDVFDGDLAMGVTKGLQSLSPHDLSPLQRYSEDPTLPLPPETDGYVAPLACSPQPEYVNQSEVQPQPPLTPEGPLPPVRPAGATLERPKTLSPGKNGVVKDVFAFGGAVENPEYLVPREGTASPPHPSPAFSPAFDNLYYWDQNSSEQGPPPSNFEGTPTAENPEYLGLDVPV

MOLECULE	U	EC50
huNRG1(S177-F229)(NRGE1C) (E47S_D48A_F49L_M50T) 6xHis: 6xHis-tagged NRG1 variant SEQ ID NO:122; ErbB4 selective agonist without Fc of Example 3 (protein, 6xHis tag; huNRG1(S177-F229)(NRGE1C) (E47S_D48A_F49L_M50T) 6xHis) SHLVKCGEKHKSFCVNGGECFMIEGPSNPSRYLCKCPNEFTGDRCQSALTASFGGGGEGGGGAGGGGHHHHHH	nM	0.695
